assay.name: NCI Yeast Anticancer Drug Screen. Data for the rad50 strain (AID 155);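 further: 0% = growth of vehicle-only cultures of the same strain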
setup.conditions: S. cerevisiae rad50 strain growth inhibition; at 5.0 µM (retest, dose inferred, filed as 0.5); active compounds read high
About 79,000 compounds went through this panel and 15% of them were active in at least one assay; those are over-represented in the sample as a whole.
// values below are reported growth inhibition

- compound: "Cc1ccc(C)c(N2C(=O)C(=O)C(c3nc4ccccc4o3)/C(=N\\NC(=O)c3ccccc3O)C2=O)c1 (stereo not given)"
  unit.info: "%"
  growth inhibition: 6
- compound: "Cc1cccc(C)c1N1C(=O)C2Nc3ccccc3SC2C1=O (stereo not given)"
  unit.info: "%"
  growth inhibition: 7
- compound: "Cc1ccc2c(c1)C1(C)C=C(CN3CCN(C)CC3)C(=O)CC1O2 (stereo not given)"
  unit.info: "%"
  growth inhibition: 16
- compound: "COc1ccc(C2C3=C(CCC(CN(C)C)C3=O)OC3=C2C(=O)C(CN(C)C)CC3)cc1 (stereo not given)"
  unit.info: "%"
  growth inhibition: -17
- compound: "c1ccc(N=C2c3ccsc3C(=Nc3ccccc3)c3ccsc32)cc1"
  unit.info: "%"
  growth inhibition: 25
- compound: "C/C=C1\\SC(=S)NC1=O"
  unit.info: "%"
  growth inhibition: 25
- compound: "CN(Cc1ccccc1)c1nc(=[N+](C)C)ss1"
  unit.info: "%"
  growth inhibition: 5
- compound: "CCOC(=O)c1c(Cl)c(CC)c(N=[N+]=[N-])n2c1nc1ccccc12"
  unit.info: "%"
  growth inhibition: 8
- compound: "COc1ccc2c(c1)CC[C@@H]1[C@@H]2CC[C@]2(C)/C(=N/OCCN3CCCCC3)CC[C@@H]12"
  unit.info: "%"
  growth inhibition: 60
- compound: "CN(C)c1ccc(/C=C\\c2c3ccccc3cc[n+]2[O-])cc1"
  unit.info: "%"
  growth inhibition: -4

Where do the numbers come from? From PubChem BioAssay (NCI).
